Quick reference for Max. Synergy, Paclitaxel among some compounds
- Test system: A2780 ovarian cancer cells
- assay_overview: Drug combination screen, 6x6 dose matrix, Bliss-independence synergy
- Assay type: cell-based
- protocol_conditions: combination with paclitaxel, Bliss score, 72 h (26*: 96-well plate format)
readout_type: Max. Synergy, Paclitaxel

{"compound": "CCC(C)c1ccc(NC(=O)c2ccn(S(=O)(=O)c3ccc4[nH]ccc4c3)c2)cc1 (stereo not shown)", "readout_type": "Max. Synergy, Paclitaxel", "quantitative_readout": 16.56}
{"compound": "O=C(Nc1ccc(C(F)(F)F)cc1)C1CCN(S(=O)(=O)c2ccc3[nH]ccc3c2)CC1", "readout_type": "Max. Synergy, Paclitaxel", "quantitative_readout": 8.95}
{"compound": "O=C(Nc1ccc(C(F)(F)F)cc1)c1ccn(S(=O)(=O)c2ccc3[nH]ccc3c2)c1", "readout_type": "Max. Synergy, Paclitaxel", "quantitative_readout": 7.83}
{"compound": "Cc1ccc(NC(=O)c2ccn(S(=O)(=O)c3ccc4[nH]ccc4c3)c2)cc1", "readout_type": "Max. Synergy, Paclitaxel", "quantitative_readout": 12.46}
